From: ChEMBL document CHEMBL1123507

compounds and their reported Toxicity
System: HeLa
Experiment: Cytotoxicity concentration in HeLa cells
Assay type: cell-based
Conditions: human

Record for `N#Cc1cc([N+](=O)[O-])ccc1Oc1ccc(Cl)cc1` under target or system HeLa: Toxicity reported as > 364 µM

* * *

Tested on: HeLa
Test: Cytotoxicity concentration in HeLa cells
Assay type: cell-based
Details: human
Outcome measure: Toxicity

[
  {
    "Smi": "N#Cc1cc([N+](=O)[O-])ccc1Oc1cccc(Cl)c1",
    "Result": "> 91 µM"
  },
  {
    "Smi": "N#Cc1cc([N+](=O)[O-])ccc1Oc1ccccc1Br",
    "Result": "> 31 µM"
  }
]

# Toxicity of `COc1ccc(Oc2ccc(S(C)(=O)=O)cc2)cc1` = > 180 µM

* * *

Readings of Toxicity for the listed compounds
Test system: HeLa
Assay: Cytotoxicity concentration in HeLa cells
Format: cell-based
Conditions: human

Worked examples, 3 compounds total:
[
  {
    "Smi": "N#Cc1cc([N+](=O)[O-])ccc1Oc1cc(Cl)ccc1Cl",
    "Toxicity": "> 162 µM"
  },
  {
    "Smi": "Cc1ccc(Oc2ccc(S(C)(=O)=O)cc2)cc1",
    "Toxicity": "203 µM"
  },
  {
    "Smi": "COc1cccc(Oc2ccc([N+](=O)[O-])cc2C#N)c1",
    "Toxicity": "> 185 µM"
  }
]

Here is another compound to look at.
So for `N#Cc1cccnc1Oc1ccc(Cl)c(Cl)c1` , the logged Toxicity turned out to be > 189 µM

* * *

Tested on: HeLa
Assay: Cytotoxicity concentration in HeLa cells
Assay type: cell-based
Settings: human
Outcome measure: Toxicity

[
  {
    "Smi": "N#Cc1cc(Cl)ccc1Oc1ccc(Cl)c(Cl)c1",
    "Target desc": "HeLa",
    "Result": "> 334 µM"
  },
  {
    "Smi": "N#Cc1ccc(Oc2ccc(Cl)c(Cl)c2)c(C#N)c1",
    "Target desc": "HeLa",
    "Result": "> 173 µM"
  },
  {
    "Smi": "N#Cc1cc([N+](=O)[O-])ccc1Oc1cccc(Cl)c1Cl",
    "Target desc": "HeLa",
    "Result": "> 65 µM"
  }
]

Measured Toxicity (HeLa), entry `N#Cc1cc([N+](=O)[O-])ccc1Oc1c(Cl)cccc1Cl` : > 65 µM

Result for `COc1ccc(Oc2ccc([N+](=O)[O-])cc2C#N)cc1OC` , tested on HeLa, Toxicity: > 167 µM

Entry `N#Cc1cc([N+](=O)[O-])ccc1Oc1cccc2ccccc12` , tested on HeLa, has a reported Toxicity of > 172 µM

// compound `CS(=O)(=O)c1ccc(Oc2ccc(Cl)c(Cl)c2)c([N+](=O)[O-])c1` , assay HeLa, Toxicity value: > 267 µM

Tested on HeLa: `O=S(=O)(c1ccc(Oc2ccc(Cl)c(Cl)c2)cc1)C(F)(F)F` . Observed Toxicity: > 135 µM

Form field Toxicity for item `N#Cc1cc([N+](=O)[O-])ccc1Oc1ccc(C(=O)c2ccccc2)cc1` on HeLa: > 291 µM

// assay HeLa, entry `Cc1ccc(Oc2ccc([N+](=O)[O-])cc2C#N)cc1` , Toxicity value = 39 µM

`N#Cc1cc([N+](=O)[O-])ccc1Oc1ccc(Cl)cc1Cl` tested on HeLa gave Toxicity: > 324 µM
